So I've got a bunch of compounds here, and I need their pIC50 values.
target: c-Kit(V654A) (Homo sapiens, UniProt P10721, V654A); construct: amino acids 544-end containing the V654A mutation; GST (N); test: c-Kit(V654A) assay; conditions: recombinant human c-Kit aa 544-end, 200 μM ATP, 1.4E-06 means 1.4×10^−6, read-out: Inhibition (IC50) of c-KIT (V654A)
Sequence (P10721 544-976 V654A): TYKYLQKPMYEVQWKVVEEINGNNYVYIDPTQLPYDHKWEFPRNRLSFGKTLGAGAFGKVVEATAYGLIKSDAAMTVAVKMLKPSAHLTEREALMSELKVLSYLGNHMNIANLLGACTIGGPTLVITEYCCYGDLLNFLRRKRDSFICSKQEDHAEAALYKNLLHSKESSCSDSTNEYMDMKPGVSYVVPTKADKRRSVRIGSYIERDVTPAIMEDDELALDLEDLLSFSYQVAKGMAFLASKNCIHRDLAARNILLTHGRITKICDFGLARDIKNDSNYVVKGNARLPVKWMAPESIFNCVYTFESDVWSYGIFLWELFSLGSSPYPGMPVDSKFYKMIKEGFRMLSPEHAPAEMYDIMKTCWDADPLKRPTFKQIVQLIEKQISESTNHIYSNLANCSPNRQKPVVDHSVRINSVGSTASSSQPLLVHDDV
A value of pIC50 is the negative decimal logarithm of a concentration given in moles per litre.

So the reported pIC50 for O=C(c1ccc(-n2cc(-c3cc4cc(F)ccc4[nH]c3=O)nn2)cc1)N1CCC(OCCN2CCOCC2)C1 (stereo not drawn) , on c-Kit(V654A) (Homo sapiens, UniProt P10721, V654A), turned out to be 7.28

So the reported pIC50 for O=c1[nH]c2ccccc2cc1-c1cnn(-c2ccccc2)c1 , on c-Kit(V654A) (Homo sapiens, UniProt P10721, V654A), turned out to be 7.32

So the reported pIC50 for CO[C@@H]1C[C@H](CO)N(C(=O)c2ccc(-n3cc(-c4cc5cc(F)ccc5[nH]c4=O)nn3)cc2)C1 , on c-Kit(V654A) (Homo sapiens, UniProt P10721, V654A), turned out to be 7.44

So the reported pIC50 for O=C(c1ccc(-n2cc(-c3cc4cc(F)ccc4[nH]c3=O)nn2)cc1)C1CCNCC1 , on c-Kit(V654A) (Homo sapiens, UniProt P10721, V654A), turned out to be 8.12

So the reported pIC50 for O=C1COCCN1c1ccc(-n2cc(-c3cc4ccccc4[nH]c3=O)nn2)cc1F , on c-Kit(V654A) (Homo sapiens, UniProt P10721, V654A), turned out to be 7.19

So the reported pIC50 for CN(C(=O)C1CCOCC1)c1ccc(-n2cc(-c3cc4cc(F)ccc4[nH]c3=O)nn2)cc1 , on c-Kit(V654A) (Homo sapiens, UniProt P10721, V654A), turned out to be 7.92

So the reported pIC50 for CN1CCN(C(=O)c2ccc(-n3cc(-c4cc5cc(F)c(F)cc5[nH]c4=O)nn3)cc2)CC1 , on c-Kit(V654A) (Homo sapiens, UniProt P10721, V654A), turned out to be 8.23

So the reported pIC50 for CO[C@H]1CCCN(C(=O)c2ccc(-n3cc(-c4cc5cc(F)ccc5[nH]c4=O)nn3)cc2)C1 , on c-Kit(V654A) (Homo sapiens, UniProt P10721, V654A), turned out to be 7.17

So the reported pIC50 for CN(C)[C@@H]1CCCN(C(=O)c2ccc(-n3cc(-c4cc5cc(F)ccc5[nH]c4=O)nn3)cc2)C1 , on c-Kit(V654A) (Homo sapiens, UniProt P10721, V654A), turned out to be 7.20

So the reported pIC50 for O=C(c1ccc(-n2cc(-c3cc4cc(Cl)ccc4[nH]c3=O)nn2)cc1)N1CCNCC1 , on c-Kit(V654A) (Homo sapiens, UniProt P10721, V654A), turned out to be 8.30

So the reported pIC50 for CN1CC[C@H](Oc2ccc(-n3cc(-c4cc5cc(Cl)ccc5[nH]c4=O)nn3)cc2)C1 , on c-Kit(V654A) (Homo sapiens, UniProt P10721, V654A), turned out to be 7.64

So the reported pIC50 for COCCO[C@@H]1CCN(C(=O)c2ccc(-n3cc(-c4cc5cc(F)ccc5[nH]c4=O)nn3)cc2)C1 , on c-Kit(V654A) (Homo sapiens, UniProt P10721, V654A), turned out to be 7.01

So the reported pIC50 for CO[C@@H]1CCC[C@H]1Oc1ccc(-n2cc(-c3cc4cc(F)ccc4[nH]c3=O)nn2)cc1 , on c-Kit(V654A) (Homo sapiens, UniProt P10721, V654A), turned out to be 7.80

So the reported pIC50 for COCCN(C)C(=O)c1ccc(-n2cc(-c3cc4cc(F)ccc4[nH]c3=O)nn2)cc1 , on c-Kit(V654A) (Homo sapiens, UniProt P10721, V654A), turned out to be 6.72

So the reported pIC50 for CN1CCN(C(=O)c2ccc(-n3cc(-c4cc5cc(Cl)ccc5[nH]c4=O)cn3)cc2)CC1 , on c-Kit(V654A) (Homo sapiens, UniProt P10721, V654A), turned out to be 8.11

So the reported pIC50 for O=C(c1ccc(-n2cc(-c3cc4cc(F)ccc4[nH]c3=O)nn2)cc1)N1C[C@@H](O)CO1 , on c-Kit(V654A) (Homo sapiens, UniProt P10721, V654A), turned out to be 7.21

So the reported pIC50 for COCCN1CCN(C(=O)c2ccc(-n3cc(-c4cc5cc(F)cnc5[nH]c4=O)nn3)cc2)CC1 , on c-Kit(V654A) (Homo sapiens, UniProt P10721, V654A), turned out to be 7.04

So the reported pIC50 for CCN(CC)CC1CCN(C(=O)c2ccc(-n3cc(-c4cc5cc(F)c(F)cc5[nH]c4=O)nn3)cc2)C1 (stereo not drawn) , on c-Kit(V654A) (Homo sapiens, UniProt P10721, V654A), turned out to be 6.48

So the reported pIC50 for NC(=O)[C@H]1CCN(C(=O)c2ccc(-n3cc(-c4cc5cc(F)ccc5[nH]c4=O)nn3)cc2)C1 , on c-Kit(V654A) (Homo sapiens, UniProt P10721, V654A), turned out to be 7.52

So the reported pIC50 for CN(C)C[C@H]1CCCN1C(=O)c1ccc(-n2cc(-c3cc4cc(F)ccc4[nH]c3=O)nn2)cc1 , on c-Kit(V654A) (Homo sapiens, UniProt P10721, V654A), turned out to be 7.36

So the reported pIC50 for CN1CCCN(c2ccc(-n3cc(-c4cc5ccccc5[nH]c4=O)nn3)cc2)CC1 , on c-Kit(V654A) (Homo sapiens, UniProt P10721, V654A), turned out to be 7.85

So the reported pIC50 for CC(=O)N(C)c1ccc(-n2cc(-c3cc4cc(F)c(F)cc4[nH]c3=O)nn2)cc1 , on c-Kit(V654A) (Homo sapiens, UniProt P10721, V654A), turned out to be 6.59

So the reported pIC50 for O=c1[nH]c2cc(F)c(F)cc2cc1-c1cn(-c2ccc(CCN3CCCC3)cc2)nn1 [A115a] , on c-Kit(V654A) (Homo sapiens, UniProt P10721, V654A), turned out to be 6.80

So the reported pIC50 for CN1CCN(C(=O)c2ccc(-n3cc(-c4cc5ccc(Cl)cc5[nH]c4=O)nn3)cc2)CC1=O , on c-Kit(V654A) (Homo sapiens, UniProt P10721, V654A), turned out to be 7.77

So the reported pIC50 for COCC1CCCN1C(=O)c1ccc(-n2cc(-c3cc4cc(F)ccc4[nH]c3=O)nn2)cc1 (stereo in doubt) , on c-Kit(V654A) (Homo sapiens, UniProt P10721, V654A), turned out to be 7.52

So the reported pIC50 for O=C(c1ccc(-n2cc(-c3cc4cc(F)c(F)cc4[nH]c3=O)nn2)cc1)N1CCC(N2CCCC2)C1 (stereo not drawn) , on c-Kit(V654A) (Homo sapiens, UniProt P10721, V654A), turned out to be 7.62

So the reported pIC50 for CN1CCC(CCOc2ccc(-n3cc(-c4cc5cc(F)c(F)cc5[nH]c4=O)nn3)cc2)CC1 , on c-Kit(V654A) (Homo sapiens, UniProt P10721, V654A), turned out to be 8.10

So the reported pIC50 for CN1CCC(Oc2ccc(-n3cc(-c4cc5cc(Cl)ccc5[nH]c4=O)nn3)cc2)CC1 , on c-Kit(V654A) (Homo sapiens, UniProt P10721, V654A), turned out to be 8.31

So the reported pIC50 for CN1CCN(C(=O)c2cccc(-n3cc(-c4cc5ccccc5[nH]c4=O)nn3)c2)CC1 , on c-Kit(V654A) (Homo sapiens, UniProt P10721, V654A), turned out to be 7.48

So the reported pIC50 for CN1CCN(C(=O)c2ccc(-n3cc(-c4cc5ccc(Cl)cc5[nH]c4=O)nn3)cc2)CC1 , on c-Kit(V654A) (Homo sapiens, UniProt P10721, V654A), turned out to be 7.96

So the reported pIC50 for O=C(c1ccc(-n2cc(-c3cc4ccccc4[nH]c3=O)nn2)cc1F)N1CCOCC1 , on c-Kit(V654A) (Homo sapiens, UniProt P10721, V654A), turned out to be 7.42

So the reported pIC50 for CCN(CC)CCNC(=O)c1ccc(-n2cc(-c3cc4cc(F)ccc4[nH]c3=O)nn2)cc1 , on c-Kit(V654A) (Homo sapiens, UniProt P10721, V654A), turned out to be 7.36

So the reported pIC50 for CN1CCN(C(=O)c2ccc(-n3cc(-c4cc5cccc(F)c5[nH]c4=O)nn3)cc2)CC1 , on c-Kit(V654A) (Homo sapiens, UniProt P10721, V654A), turned out to be 7.31
